# MEASUREMENT DESCRIPTION: chemical genetic growth profiling, strain panel (AID 1159580);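 further: tested at 20 µM; growth read once vehicle control cultures reached saturation at 30 °C; 1 = growth at the plate median or of vehicle wells; lower values mean less growth of the strain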
# SETUP CONDITIONS: S. cerevisiae deletion strains, growth OD, locus YEL003W, strain gim4, stronger effect = lower value
Screen size: about 5,500 compounds; about 2,000 (36%) were called active. Not shown: some 18% with an inconclusive outcome. This is one part of the list.
VALUE TYPE: normalized growth
Answers are plain numbers.

Sample records with normalized growth:
Inquiry: Recorded normalized growth for "NCCCS(=O)(=O)O" , please?
Reply text: 1.02

Inquiry: Another compound to check: "CC[C@@H]1C=C/C=C/C[C@H](C)[C@@H](O)[C@](C)(O)C(=O)[C@H](C)[C@@H](O)[C@H](C)C(=O)[C@H](C)[C@@H](O)[C@H](C)/C=C/C(=O)O[C@H]2[C@@H](C)[C@@H](CC1)O[C@@]1(CC[C@@H](C)[C@@H](C[C@H](C)O)O1)[C@@H]2C"
Reply text: 1.01

Inquiry: Further, for "Cc1[nH]c2ccccc2c1CN(C)C" ?
Reply text: 1.01

Inquiry: One more compound: COc1ccc2c(c1)OC1(O)COc3cc(OC)c(OC)cc3C1=C2 (stereo not drawn)
Reply text: 0.962

Inquiry: Can you handle "CCC[C@H](N[C@@H](C)C(=O)N1[C@H](C(=O)O)C[C@@H]2CCCC[C@@H]21)C(=O)OCC" next?
Reply text: 1.01

Inquiry: Same again, this time with "CC(=O)Oc1cc(OC(C)=O)c2c(c1)O[C@H](c1ccc(OC(C)=O)c(OC(C)=O)c1)[C@@H](OC(C)=O)C2"
Reply text: 1

Inquiry: Note, next up: CN1C2CCC1CC(OC(c1ccccc1)c1ccccc1)C2 (stereo not drawn)
Reply text: 0.983

Inquiry: Follow-up item: "CN1C2C[C@H](OC(=O)[C@H](CO)c3ccccc3)C[C@H]1[C@@H](O)C2"
Reply text: 1.03

Look at each compound and report its normalized growth.
1. O=C1C(Cl)=C(Cl)C(=O)C(Cl)=C1Cl
2. CC(=O)O[C@H]1C[C@@H](OC(C)=O)C(C)(C)C2CC(=O)[C@]3(C)C(CC[C@@]4(C)[C@H](C(=O)O)OC(=O)C5OC543)[C@]21C (stereo partly drawn)

Reply text:
[0.881, 0.994]
